- Tested on: SF-295
- measurement notes: Cytotoxicity against human SF295 cells
- Format: functional
property label: GI50 (nM)
Express your answer in nM, writing the number without its unit.

[Q] Record lookup: for SF-295, what GI50 belongs to CC1=C(SCCC(=O)OC(C[Se]C2=C(C)C(=O)c3ccccc3C2=O)C(=O)NCCCCCC(=O)OCc2ccccc2)C(=O)c2ccccc2C1=O (centres undefined) ?
[A] 2510

[Q] Record lookup: for SF-295, what GI50 belongs to CC1=C([Se]CC(OC(=O)[C@@H](CO)NC(=O)OC(C)(C)C)C(=O)NC(C)(C)C)C(=O)c2ccccc2C1=O (some centres undefined) ?
[A] 316

[Q] Record lookup: for SF-295, what GI50 belongs to CC1=C([Se]CC(OC(=O)[C@@H](CO)NC(=O)OC(C)(C)C)C(=O)NCCCCCC(=O)OCc2ccccc2)C(=O)c2ccccc2C1=O (some centres undefined) ?
[A] 324

[Q] Record lookup: for SF-295, what GI50 belongs to CC1=C([Se]CC(OC(=O)[C@@H](CSSC(C)(C)C)NC(=O)C(C)(C)C)C(=O)NCCCCCC(=O)OCc2ccccc2)C(=O)c2ccccc2C1=O (some centres undefined) ?
[A] 316

###

- System: NCI-H322M
- measurement notes: Cytotoxicity against human NCI-H322M cells
- Assay type: functional
property label: GI50 (nM)
Express your answer in nM, writing the number without its unit.

[Q] Quick one: GI50 for CC1=C([Se]CC(OC(=O)[C@@H](CSSC(C)(C)C)NC(=O)C(C)(C)C)C(=O)NCCCCCC(=O)OCc2ccccc2)C(=O)c2ccccc2C1=O (some centres undefined) ?
[A] 398

[Q] Quick one: GI50 for CC1=C([Se]CC(OC(=O)[C@@H](CO)NC(=O)OC(C)(C)C)C(=O)NC(C)(C)C)C(=O)c2ccccc2C1=O (some centres undefined) ?
[A] 447

[Q] Quick one: GI50 for CC1=C([Se]CC(OC(=O)[C@@H](CO)NC(=O)OC(C)(C)C)C(=O)NCCCCCC(=O)OCc2ccccc2)C(=O)c2ccccc2C1=O (some centres undefined) ?
[A] 417

[Q] Quick one: GI50 for CC1=C(SCCC(=O)OC(C[Se]C2=C(C)C(=O)c3ccccc3C2=O)C(=O)NCCCCCC(=O)OCc2ccccc2)C(=O)c2ccccc2C1=O (centres undefined) ?
[A] 3800

###

- Test system: EKVX
- measurement notes: Cytotoxicity against human EKVX cells
- Type: functional
Task for the reader: assign each of the following compounds its reported LC50.
Express your answer in µM, writing the number without its unit.

[Q] Record lookup: for EKVX, what LC50 belongs to CC1=C(SCCC(=O)OC(C[Se]C2=C(C)C(=O)c3ccccc3C2=O)C(=O)NCCCCCC(=O)OCc2ccccc2)C(=O)c2ccccc2C1=O (centres undefined) ?
[A] 58.9

[Q] Record lookup: for EKVX, what LC50 belongs to CC1=C([Se]CC(OC(=O)[C@@H](CO)NC(=O)OC(C)(C)C)C(=O)NC(C)(C)C)C(=O)c2ccccc2C1=O (some centres undefined) ?
[A] 7.76

[Q] Record lookup: for EKVX, what LC50 belongs to CC1=C([Se]CC(OC(=O)[C@@H](CO)NC(=O)OC(C)(C)C)C(=O)NCCCCCC(=O)OCc2ccccc2)C(=O)c2ccccc2C1=O (some centres undefined) ?
[A] 8.32

###

- Tested on: SF-268
- measurement notes: Cytotoxicity against human SF268 cells
- Type: functional
- condition context: read-out: pTGI (converted)
Task for the reader: assign each of the following compounds its reported TGI.
Express your answer in µM, writing the number without its unit.

[Q] Record lookup: for SF-268, what TGI belongs to CC1=C([Se]CC(OC(=O)[C@@H](CO)NC(=O)OC(C)(C)C)C(=O)NCCCCCC(=O)OCc2ccccc2)C(=O)c2ccccc2C1=O (some centres undefined) ?
[A] 3.24

[Q] Record lookup: for SF-268, what TGI belongs to CC1=C([Se]CC(OC(=O)[C@@H](CO)NC(=O)OC(C)(C)C)C(=O)NC(C)(C)C)C(=O)c2ccccc2C1=O (some centres undefined) ?
[A] 3.31

[Q] Record lookup: for SF-268, what TGI belongs to CC1=C([Se]CC(OC(=O)[C@@H](CSSC(C)(C)C)NC(=O)C(C)(C)C)C(=O)NCCCCCC(=O)OCc2ccccc2)C(=O)c2ccccc2C1=O (some centres undefined) ?
[A] 3.55

[Q] Record lookup: for SF-268, what TGI belongs to CC1=C(SCCC(=O)OC(C[Se]C2=C(C)C(=O)c3ccccc3C2=O)C(=O)NCCCCCC(=O)OCc2ccccc2)C(=O)c2ccccc2C1=O (centres undefined) ?
[A] 20

###

- System: OVCAR-5
- measurement notes: Cytotoxicity against human OVCAR5 cells
- Type: functional
property label: LC50 (µM)
Express your answer in µM, writing the number without its unit.

[Q] Quick one: LC50 for CC1=C([Se]CC(OC(=O)[C@@H](CSSC(C)(C)C)NC(=O)C(C)(C)C)C(=O)NCCCCCC(=O)OCc2ccccc2)C(=O)c2ccccc2C1=O (some centres undefined) ?
[A] 17.4

[Q] Quick one: LC50 for CC1=C(SCCC(=O)OC(C[Se]C2=C(C)C(=O)c3ccccc3C2=O)C(=O)NCCCCCC(=O)OCc2ccccc2)C(=O)c2ccccc2C1=O (centres undefined) ?
[A] 61.7

[Q] Quick one: LC50 for CC1=C([Se]CC(OC(=O)[C@@H](CO)NC(=O)OC(C)(C)C)C(=O)NC(C)(C)C)C(=O)c2ccccc2C1=O (some centres undefined) ?
[A] 6.61

[Q] Quick one: LC50 for CC1=C([Se]CC(OC(=O)[C@@H](CO)NC(=O)OC(C)(C)C)C(=O)NCCCCCC(=O)OCc2ccccc2)C(=O)c2ccccc2C1=O (some centres undefined) ?
[A] 6.31

###

- System: UACC-62
- measurement notes: Cytotoxicity against human UACC62 cells
- Format: functional
Task for the reader: assign each of the following compounds its reported GI50.
Express your answer in nM, writing the number without its unit.

[Q] Record lookup: for UACC-62, what GI50 belongs to CC1=C(SCCC(=O)OC(C[Se]C2=C(C)C(=O)c3ccccc3C2=O)C(=O)NCCCCCC(=O)OCc2ccccc2)C(=O)c2ccccc2C1=O (centres undefined) ?
[A] 8130

[Q] Record lookup: for UACC-62, what GI50 belongs to CC1=C([Se]CC(OC(=O)[C@@H](CSSC(C)(C)C)NC(=O)C(C)(C)C)C(=O)NCCCCCC(=O)OCc2ccccc2)C(=O)c2ccccc2C1=O (some centres undefined) ?
[A] 1950

[Q] Record lookup: for UACC-62, what GI50 belongs to CC1=C([Se]CC(OC(=O)[C@@H](CO)NC(=O)OC(C)(C)C)C(=O)NC(C)(C)C)C(=O)c2ccccc2C1=O (some centres undefined) ?
[A] 1660

[Q] Record lookup: for UACC-62, what GI50 belongs to CC1=C([Se]CC(OC(=O)[C@@H](CO)NC(=O)OC(C)(C)C)C(=O)NCCCCCC(=O)OCc2ccccc2)C(=O)c2ccccc2C1=O (some centres undefined) ?
[A] 1700

###

- System: A549
- measurement notes: Cytotoxicity against human A549 cells
- Format: functional
property label: GI50 (µM)
Express your answer in µM, writing the number without its unit.

[Q] Quick one: GI50 for CC1=C([Se]CC(OC(=O)[C@@H](CO)NC(=O)OC(C)(C)C)C(=O)NCCCCCC(=O)OCc2ccccc2)C(=O)c2ccccc2C1=O (some centres undefined) ?
[A] 1.38

[Q] Quick one: GI50 for CC1=C([Se]CC(OC(=O)[C@@H](CSSC(C)(C)C)NC(=O)C(C)(C)C)C(=O)NCCCCCC(=O)OCc2ccccc2)C(=O)c2ccccc2C1=O (some centres undefined) ?
[A] 2.09

[Q] Quick one: GI50 for CC1=C([Se]CC(OC(=O)[C@@H](CO)NC(=O)OC(C)(C)C)C(=O)NC(C)(C)C)C(=O)c2ccccc2C1=O (some centres undefined) ?
[A] 1.82

[Q] Quick one: GI50 for CC1=C(SCCC(=O)OC(C[Se]C2=C(C)C(=O)c3ccccc3C2=O)C(=O)NCCCCCC(=O)OCc2ccccc2)C(=O)c2ccccc2C1=O (centres undefined) ?
[A] 3.98

###

- System: HUVEC
- measurement notes: Cytotoxicity against human HUVEC cells after 24 hrs by MTT assay
- Assay type: cell-based
property label: IC50

[Q] Quick one: IC50 for CC(C)(C)NC(=O)C(C[Se]c1ccccc1)OC(=O)c1ccc(-c2c3nc(c(-c4ccccc4)c4ccc([nH]4)c(-c4ccccc4)c4nc(c(-c5ccccc5)c5ccc2[nH]5)C=C4)C=C3)cc1 (stereo not drawn) ?
[A] > 100 µM

[Q] Quick one: IC50 for CC1=C([Se]CC(OC(=O)c2ccc(-c3c4nc(c(-c5ccccc5)c5ccc([nH]5)c(-c5ccccc5)c5nc(c(-c6ccccc6)c6ccc3[nH]6)C=C5)C=C4)cc2)C(=O)NC(C)(C)C)C(=O)c2ccccc2C1=O (stereo not drawn) ?
[A] > 100 µM

[Q] Quick one: IC50 for `CC(C)(C)NC(=O)COC(=O)c1ccc(-c2c3nc(c(-c4ccccc4)c4ccc([nH]4)c(-c4ccccc4)c4nc(c(-c5ccccc5)c5ccc2[nH]5)C=C4)C=C3)cc1` ?
[A] > 100 µM

Every entry's value here was drawn from ChEMBL document CHEMBL2177069.
